Taken from paper PMC7930822.

test: phase I plasma pharmacokinetics (non-compartmental, LC-MS/MS); format: in vivo, human; conditions: human, plasma, po, 150 mg, single oral administration, 150 mg larotinib mesylate, plasma; read-out: AUC0-t, mean (min–max)
Counter-ions that a name gives are not always drawn.
Property name: AUC(0-t)
Entry format: amount then unit.

Query string: # lookup: AUC(0-t) of COc1cc2ncnc(Nc3ccc(F)c(Cl)c3)c2cc1OCCCN1C[C@@H]2OCCO[C@@H]2C1 [larotinib mesylate]
Result string: 4780 ng·h/mL

---

experiment: phase I plasma pharmacokinetics (non-compartmental, LC-MS/MS); assay type: in vivo, human; settings: human, plasma, po, 220 mg, single oral administration, 220 mg larotinib mesylate, plasma; read-out: Cmax, mean (min–max)
Counter-ions that a name gives are not always drawn.
Property name: Cmax (ng/mL)
Write the number in ng/mL without appending the unit.

Query string: # lookup: Cmax of COc1cc2ncnc(Nc3ccc(F)c(Cl)c3)c2cc1OCCCN1C[C@@H]2OCCO[C@@H]2C1 [larotinib mesylate]
Result string: 278

---

Assay: phase I plasma pharmacokinetics (non-compartmental, LC-MS/MS)
Assay type: in vivo, human
Conditions: human, plasma, po, 350 mg, multiple oral administration, 350 mg larotinib mesylate, steady state, plasma; read-out: Tmax,ss, median (min–max)
Method: This was a phase I, single-center, open-label, dose-escalation study conducted at First Hospital of Jilin University, China (registration no.: ChiCTR-OPC-15007153 registered at http://www.chictr.org.cn). […] After cycle 0, larotinib mesylate was continuously administered once daily for 28 days in cycle 1, and the tolerance and pharmacokinetic characteristics of multiple doses were evaluated (Figure 2). […]
Structures can show the parent of a compound that is named as a salt.
Property name: Tmax (h)
Write the number in h without appending the unit.

Query string: # lookup: Tmax of COc1cc2ncnc(Nc3ccc(F)c(Cl)c3)c2cc1OCCCN1C[C@@H]2OCCO[C@@H]2C1 [larotinib mesylate]
Result string: 5

---

experiment: phase I plasma pharmacokinetics (non-compartmental, LC-MS/MS); format: in vivo, human; conditions: human, plasma, po, single oral dose, across 50–400 mg; read-out: median Tmax
Counter-ions that a name gives are not always drawn.
Property name: Tmax

Query string: # lookup: Tmax of COc1cc2ncnc(Nc3ccc(F)c(Cl)c3)c2cc1OCCCN1C[C@@H]2OCCO[C@@H]2C1 [larotinib mesylate]
Result string: 3.5 to 6 h

---

experiment: phase I plasma pharmacokinetics (non-compartmental, LC-MS/MS); assay type: in vivo, human; settings: human; multiple oral administration, 400 mg larotinib mesylate, steady state, plasma; read-out: AUCτ,ss, mean (min–max)
Counter-ions that a name gives are not always drawn.
Property name: AUC
Entry format: amount then unit.

Query string: # lookup: AUC of COc1cc2ncnc(Nc3ccc(F)c(Cl)c3)c2cc1OCCCN1C[C@@H]2OCCO[C@@H]2C1 [larotinib mesylate]
Result string: 16100 ng·h/mL

---

Assay: phase I plasma pharmacokinetics (non-compartmental, LC-MS/MS)
Format: in vivo, human
Details: human, plasma, po, 400 mg, single oral administration, 400 mg larotinib mesylate, plasma; read-out: Cmax, mean (min–max)
Procedure: This was a phase I, single-center, open-label, dose-escalation study conducted at First Hospital of Jilin University, China (registration no.: ChiCTR-OPC-15007153 registered at http://www.chictr.org.cn). […] After cycle 0, larotinib mesylate was continuously administered once daily for 28 days in cycle 1, and the tolerance and pharmacokinetic characteristics of multiple doses were evaluated (Figure 2). […]
Counter-ions that a name gives are not always drawn.
Property name: Cmax
Entry format: amount then unit.

Query string: # lookup: Cmax of COc1cc2ncnc(Nc3ccc(F)c(Cl)c3)c2cc1OCCCN1C[C@@H]2OCCO[C@@H]2C1 [larotinib mesylate]
Result string: 354 ng/mL

---

experiment: phase I plasma pharmacokinetics (non-compartmental, LC-MS/MS); assay type: in vivo, human; conditions: human; multiple oral administration, 50 mg larotinib mesylate, steady state, plasma; read-out: AUCτ,ss, mean (min–max)
Where a name gives a salt, the structure may show the parent alone.
Property name: AUC (ng·h/mL)
Write the number in ng·h/mL without appending the unit.

Query string: # lookup: AUC of COc1cc2ncnc(Nc3ccc(F)c(Cl)c3)c2cc1OCCCN1C[C@@H]2OCCO[C@@H]2C1 [larotinib mesylate]
Result string: 1220

---

test: phase I plasma pharmacokinetics (non-compartmental, LC-MS/MS); format: in vivo, human; conditions: human, plasma, po, 220 mg, single oral administration, 220 mg larotinib mesylate, plasma; read-out: Tmax, median (min–max)
Counter-ions that a name gives are not always drawn.
Property name: Tmax
Entry format: amount then unit.

Query string: # lookup: Tmax of COc1cc2ncnc(Nc3ccc(F)c(Cl)c3)c2cc1OCCCN1C[C@@H]2OCCO[C@@H]2C1 [larotinib mesylate]
Result string: 5 h

---

experiment: urine and fecal excretion recovery, cycle 0; assay type: in vivo; settings: human, oral; 220-mg group, urine plus feces; read-out: 0–120 h excretion recovery percentage, total
Where a name gives a salt, the structure may show the parent alone.
Property name: dose excreted
Entry format: amount then unit.

Query string: # lookup: dose excreted of COc1cc2ncnc(Nc3ccc(F)c(Cl)c3)c2cc1OCCCN1C[C@@H]2OCCO[C@@H]2C1 [larotinib mesylate]
Result string: 9.25%

---

experiment: phase I plasma pharmacokinetics (non-compartmental, LC-MS/MS); format: in vivo, human; conditions: human, plasma, po, 300 mg, single oral administration, 300 mg larotinib mesylate, plasma; read-out: AUC0-24, mean (min–max)
Structures can show the parent of a compound that is named as a salt.
Property name: AUC(0-t) (ng·h/mL)
Write the number in ng·h/mL without appending the unit.

Query string: # lookup: AUC(0-t) of COc1cc2ncnc(Nc3ccc(F)c(Cl)c3)c2cc1OCCCN1C[C@@H]2OCCO[C@@H]2C1 [larotinib mesylate]
Result string: 2690

---

experiment: phase I plasma pharmacokinetics (non-compartmental, LC-MS/MS); format: in vivo, human; conditions: human, plasma, po, 300 mg, single oral administration, 300 mg larotinib mesylate, plasma; read-out: T1/2, mean (min–max) (converted)
Structures can show the parent of a compound that is named as a salt.
Property name: half-life (h)
Write the number in h without appending the unit.

Query string: # lookup: half-life of COc1cc2ncnc(Nc3ccc(F)c(Cl)c3)c2cc1OCCCN1C[C@@H]2OCCO[C@@H]2C1 [larotinib mesylate]
Result string: 46.2

---

test: phase I plasma pharmacokinetics (non-compartmental, LC-MS/MS); type: in vivo, human; conditions: human, plasma, po, 150 mg, multiple oral administration, 150 mg larotinib mesylate, steady state, plasma; read-out: AUC0-t,ss, mean (min–max)
Where a name gives a salt, the structure may show the parent alone.
Property name: AUC(0-t) (ng·h/mL)
Write the number in ng·h/mL without appending the unit.

Query string: # lookup: AUC(0-t) of COc1cc2ncnc(Nc3ccc(F)c(Cl)c3)c2cc1OCCCN1C[C@@H]2OCCO[C@@H]2C1 [larotinib mesylate]
Result string: 18200

---

test: phase I plasma pharmacokinetics (non-compartmental, LC-MS/MS); assay type: in vivo, human; conditions: human, plasma, po, 100 mg, single oral administration, 100 mg larotinib mesylate, plasma; read-out: AUC0-t, mean (min–max)
Where a name gives a salt, the structure may show the parent alone.
Property name: AUC(0-t)

Query string: # lookup: AUC(0-t) of COc1cc2ncnc(Nc3ccc(F)c(Cl)c3)c2cc1OCCCN1C[C@@H]2OCCO[C@@H]2C1 [larotinib mesylate]
Result string: 1240 ng·h/mL

---

assay: phase I plasma pharmacokinetics (non-compartmental, LC-MS/MS); type: in vivo, human; settings: human, plasma, po, 400 mg, multiple oral administration, 400 mg larotinib mesylate, steady state, plasma; read-out: T1/2,ss, mean (min–max) (converted)
Where a name gives a salt, the structure may show the parent alone.
Property name: half-life (h)
Write the number in h without appending the unit.

Query string: # lookup: half-life of COc1cc2ncnc(Nc3ccc(F)c(Cl)c3)c2cc1OCCCN1C[C@@H]2OCCO[C@@H]2C1 [larotinib mesylate]
Result string: 87

---

experiment: phase I plasma pharmacokinetics (non-compartmental, LC-MS/MS); assay type: in vivo, human; conditions: human, plasma, po, 350 mg, single oral administration, 350 mg larotinib mesylate, plasma; read-out: AUC0-∞, mean (min–max)
Structures can show the parent of a compound that is named as a salt.
Property name: AUC(0-inf) (ng·h/mL)
Write the number in ng·h/mL without appending the unit.

Query string: # lookup: AUC(0-inf) of COc1cc2ncnc(Nc3ccc(F)c(Cl)c3)c2cc1OCCCN1C[C@@H]2OCCO[C@@H]2C1 [larotinib mesylate]
Result string: 6830

---

assay: phase I plasma pharmacokinetics (non-compartmental, LC-MS/MS); assay type: in vivo, human; conditions: human, plasma, po, 50 mg, multiple oral administration, 50 mg larotinib mesylate, steady state, plasma; read-out: T1/2,ss, mean (min–max) (converted)
Counter-ions that a name gives are not always drawn.
Property name: half-life (h)
Write the number in h without appending the unit.

Query string: # lookup: half-life of COc1cc2ncnc(Nc3ccc(F)c(Cl)c3)c2cc1OCCCN1C[C@@H]2OCCO[C@@H]2C1 [larotinib mesylate]
Result string: 61.2
